Attribution: ChEMBL document CHEMBL3244280

A collection of compounds and their measured MIC
system: Staphylococcus aureus; experiment: Antibacterial activity against Staphylococcus aureus Oxford; format: functional
OBSERVATION TYPE: MIC (µg/mL)

INSERT INTO measurements (compound, measured) VALUES
  ('NC1=NC(=O)C(Cc2c[nH]c3ccccc23)S1 (racemic)', 200),
  ('CNC1=NC(=O)[C@H]([C@H](C)c2c[nH]c3ccccc23)S1 (racemic)', 2),
  ('C/N=C1/S[C@@H]([C@H](C)c2c[nH]c3ccccc23)C(=O)N1C (racemic)', 2),
  ('CNC1=NC(=O)[C@H]([C@H](C)c2c[nH]c3ccccc23)O1 (racemic) [INDOMYCIN]', 2),
  ('C[C@H](c1c[nH]c2ccccc12)[C@@H]1SC(N(C)C)=NC1=O (racemic)', 20),
  ('C[C@H](c1c[nH]c2ccccc12)[C@@H]1SC(NCCO)=NC1=O (racemic)', 200),
  ('CCNC1=NC(=O)[C@H]([C@H](C)c2c[nH]c3ccccc23)S1 (racemic)', 20),
  ('CC1(C)S[C@@H]2[C@H](NC(=O)[C@H](N)c3ccccc3)C(=O)N2[C@H]1C(=O)O [AMPICILLIN]', 2),
  ('CNC1=NC(=O)[C@@H]([C@H](C)c2c[nH]c3ccccc23)O1 (racemic)', 200),
  ('CNC1=NC(=O)C(Cc2c[nH]c3ccccc23)S1 (racemic)', 20);
